The values you see were collected from patent US20240390357A1.

- system.under.test: GBA (glucosylceramidase, GCase), L444P GBA mutation (Homo sapiens, UniProt P04062, L483P)
- Construct: Human fibroblast cell line GM10915 harboring the L444P GBA mutation was obtained from Coriell Biorepositories; host or cells: GM10915 human fibroblasts
- measurement.description: GCase activity assay (4-MUG) in GM10915 fibroblasts, normalised to crystal violet staining
- Type: cell-based
- assay.context: maximum Percent GCase activity in the dose range tested, relative to basal activity of untreated cells; GM10915 (L444P GBA), five days exposure
# note: boundary value 200% maps to -1; Emax below it maps to 1

[
  {
    "compound": "c1nc(C2CCNCC2)sc1CN1CCCCC1",
    "assigned.class": -1
  },
  {
    "compound": "Fc1c(CN2CCCCC2)ccnc1C1CCNCC1",
    "assigned.class": -1
  },
  {
    "compound": "c1cc(CN2CCCCC2)nc(C2CCNCC2)n1",
    "assigned.class": -1
  },
  {
    "compound": "C1=C(c2ccc(CN3CCCCC3)cn2)CNC1",
    "assigned.class": -1
  },
  {
    "compound": "Cc1cc(CN2CCCCC2)cnc1C1CCNCC1",
    "assigned.class": -1
  },
  {
    "compound": "c1cc2ncc(CN3CCCCC3)n2cc1C1CCNCC1",
    "assigned.class": 1
  },
  {
    "compound": "Cc1cc(CN2CCCCC2)cc(C2CCN(C)CC2)n1",
    "assigned.class": 1
  },
  {
    "compound": "CN1CCCC(c2cccc(CN3CCCCC3)n2)C1 (centres unmarked)",
    "assigned.class": -1
  },
  {
    "compound": "C1CCN(Cc2noc(C3CCCNC3)n2)CC1 (centres unmarked)",
    "assigned.class": 1
  },
  {
    "compound": "CC(c1cncc(C2CCNCC2)c1)N1CCCCC1 (centres unmarked)",
    "assigned.class": -1
  }
]

###

- system.under.test: GBA (glucosylceramidase, GCase), L444P GBA mutation (Homo sapiens, UniProt P04062, L483P)
- Construct: Human fibroblast cell line GM10915 harboring the L444P GBA mutation was obtained from Coriell Biorepositories; host or cells: GM10915 human fibroblasts
- measurement.description: GCase activity assay (4-MUG) in GM10915 fibroblasts, normalised to crystal violet staining
- Format: cell-based
- assay.context: maximum Percent GCase activity in the dose range tested, relative to basal activity of untreated cells; GM10915 (L444P GBA), five days exposure

[
  {
    "compound": "Cc1cc(CN2CCCCC2)cc(C2CCNCC2)n1",
    "readout.unit": "%",
    "Emax": 227
  },
  {
    "compound": "c1cc(CN2CCCCC2)nc(C2CCNC2)c1 (stereo not drawn)",
    "readout.unit": "%",
    "Emax": 165
  },
  {
    "compound": "c1ncc(C2CCNC2)cc1CN1CCCCC1 (stereo not drawn)",
    "readout.unit": "%",
    "Emax": 205
  }
]

###

- system.under.test: GBA (glucosylceramidase, GCase), L444P GBA mutation (Homo sapiens, UniProt P04062, L483P)
- Construct: Human fibroblast cell line GM10915 harboring the L444P GBA mutation was obtained from Coriell Biorepositories; host or cells: GM10915 human fibroblasts
- measurement.description: GCase activity assay (4-MUG) in GM10915 fibroblasts, normalised to crystal violet staining
- Type: cell-based
- assay.context: maximum Percent GCase activity in the dose range tested, relative to basal activity of untreated cells; GM10915 (L444P GBA), five days exposure
A collection of compounds and their measured Emax
result.type: Emax (%)

[
  {
    "compound": "Cc1cc(C2CCCN(C)C2)nc(CN2CCCCC2)n1 (stereo not drawn)",
    "result.type": "Emax",
    "observed.measurement": 248
  },
  {
    "compound": "c1nc(C2CCNCC2)cnc1CN1CCCCC1",
    "result.type": "Emax",
    "observed.measurement": 190
  },
  {
    "compound": "CN1CCCC(c2cncc(CN3CCCCC3)c2)C1 (stereo not drawn)",
    "result.type": "Emax",
    "observed.measurement": 216
  },
  {
    "compound": "Cc1ccc(CN2CCCCC2)nc1C1CCNCC1",
    "result.type": "Emax",
    "observed.measurement": 152
  },
  {
    "compound": "CN1CCC(c2cc(CN3CCCCC3)ncn2)CC1",
    "result.type": "Emax",
    "observed.measurement": 155
  },
  {
    "compound": "c1cn(C2CCNCC2)nc1CN1CCCCC1",
    "result.type": "Emax",
    "observed.measurement": 189
  },
  {
    "compound": "c1cc(CN2CCCCC2)ncc1C1CCCNC1 (stereo not drawn)",
    "result.type": "Emax",
    "observed.measurement": 214
  },
  {
    "compound": "CN1CCCC(c2cnc(CN3CCCCC3)cn2)C1 (stereo not drawn)",
    "result.type": "Emax",
    "observed.measurement": 236
  },
  {
    "compound": "Cn1nc(C2CCCNC2)cc1CN1CCCCC1 (stereo not drawn)",
    "result.type": "Emax",
    "observed.measurement": 205
  }
]

###

- system.under.test: GBA (glucosylceramidase, GCase), L444P GBA mutation (Homo sapiens, UniProt P04062, L483P)
- Construct: Human fibroblast cell line GM10915 harboring the L444P GBA mutation was obtained from Coriell Biorepositories; host or cells: GM10915 human fibroblasts
- Sequence (P04062 40-536 L483P): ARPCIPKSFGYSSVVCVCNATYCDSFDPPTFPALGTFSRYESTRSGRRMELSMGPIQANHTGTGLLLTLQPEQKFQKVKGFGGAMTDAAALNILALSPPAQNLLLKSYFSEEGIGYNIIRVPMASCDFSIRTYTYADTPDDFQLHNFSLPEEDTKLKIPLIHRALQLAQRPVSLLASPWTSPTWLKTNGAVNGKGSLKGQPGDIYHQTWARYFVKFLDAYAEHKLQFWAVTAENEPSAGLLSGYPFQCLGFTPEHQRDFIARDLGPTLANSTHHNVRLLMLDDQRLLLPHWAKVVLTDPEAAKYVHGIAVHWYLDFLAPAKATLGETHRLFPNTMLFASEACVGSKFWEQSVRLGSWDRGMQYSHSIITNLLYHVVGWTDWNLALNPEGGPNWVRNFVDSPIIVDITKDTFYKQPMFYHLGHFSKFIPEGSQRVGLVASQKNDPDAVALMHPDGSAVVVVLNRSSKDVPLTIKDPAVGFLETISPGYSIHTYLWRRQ
- measurement.description: GCase activity assay (4-MUG) in GM10915 fibroblasts, normalised to crystal violet staining
- Assay type: cell-based
- assay.context: concentration where Percent GCase activity = 150% (1.5-fold induction); human fibroblast cell line GM10915 (L444P GBA), five days exposure, 8-point dose range
# note: boundary value 8 µM maps to not fulfilled; GBA EC1.5 below it maps to fulfilled

[
  {
    "molecule": "c1cc2c(CN3CCCCC3)c[nH]c2nc1C1CCCNC1 (stereo not drawn)",
    "assigned.class": "not fulfilled"
  },
  {
    "molecule": "Cc1cc(C2CCNCC2)nc(CN2CCCCC2)n1",
    "assigned.class": "not fulfilled"
  },
  {
    "molecule": "CN1CCCC(c2ccc(CN3CCCCC3)nc2)C1 (stereo not drawn)",
    "assigned.class": "fulfilled"
  },
  {
    "molecule": "Cc1cc(CN2CCCCC2)cnc1C1CCNCC1",
    "assigned.class": "fulfilled"
  },
  {
    "molecule": "Cc1ccc(CN2CCCCC2)nc1C1CCN(C)CC1",
    "assigned.class": "fulfilled"
  },
  {
    "molecule": "Cc1cc(CN2CCCCC2)cnc1C1CCN(C)CC1",
    "assigned.class": "fulfilled"
  },
  {
    "molecule": "Cc1cc(C2CCCN(C)C2)nc(CN2CCCCC2)n1 (stereo not drawn)",
    "assigned.class": "fulfilled"
  },
  {
    "molecule": "c1cc(CN2CCCCC2)cc(C2CCNCC2)n1",
    "assigned.class": "fulfilled"
  },
  {
    "molecule": "COc1ncc(C2CCN(C)CC2)cc1CN1CCCCC1",
    "assigned.class": "fulfilled"
  },
  {
    "molecule": "CN1CCCC(c2cnc(CN3CCCCC3)cn2)C1 (stereo not drawn)",
    "assigned.class": "fulfilled"
  },
  {
    "molecule": "c1cc(CN2CCCCC2)ncc1C1CCNCC1",
    "assigned.class": "not fulfilled"
  },
  {
    "molecule": "c1nc(CN2CCCCC2)cc(C2CCNC2)n1 (stereo not drawn)",
    "assigned.class": "not fulfilled"
  },
  {
    "molecule": "c1nc2cnc(C3CCNCC3)cn2c1CN1CCCCC1",
    "assigned.class": "not fulfilled"
  },
  {
    "molecule": "Cn1nc(C2CCCNC2)cc1CN1CCCCC1 (stereo not drawn)",
    "assigned.class": "not fulfilled"
  },
  {
    "molecule": "C1CCN(Cc2noc(C3CCCNC3)n2)CC1 (stereo not drawn)",
    "assigned.class": "not fulfilled"
  },
  {
    "molecule": "c1cc(C2CCNCC2)ncc1CN1CCCCC1",
    "assigned.class": "fulfilled"
  },
  {
    "molecule": "c1c(C2CCNC2)noc1CN1CCCCC1 (stereo not drawn)",
    "assigned.class": "fulfilled"
  },
  {
    "molecule": "c1cc(CN2CCCCC2)nc(C2CCNC2)c1 (stereo not drawn)",
    "assigned.class": "not fulfilled"
  },
  {
    "molecule": "Cc1ccc(CN2CCCCC2)nc1C1CCNCC1",
    "assigned.class": "fulfilled"
  },
  {
    "molecule": "c1cc(CN2CCCCC2)nc(C2CCNCC2)n1",
    "assigned.class": "fulfilled"
  },
  {
    "molecule": "CN1CCC(c2cc(CN3CCCCC3)ncn2)CC1",
    "assigned.class": "fulfilled"
  },
  {
    "molecule": "Fc1c(CN2CCCCC2)ccnc1C1CCNCC1",
    "assigned.class": "fulfilled"
  },
  {
    "molecule": "C1=C(c2ccc(CN3CCCCC3)cn2)CNC1",
    "assigned.class": "not fulfilled"
  },
  {
    "molecule": "COc1ncc(C2CCCNC2)cc1CN1CCCCC1 (stereo not drawn)",
    "assigned.class": "fulfilled"
  },
  {
    "molecule": "Cc1cc(CN2CCCCC2)cc(C2CCNCC2)n1",
    "assigned.class": "fulfilled"
  },
  {
    "molecule": "CN1CCCC(c2cncc(CN3CCCCC3)c2)C1 (stereo not drawn)",
    "assigned.class": "fulfilled"
  }
]
